- System: A20
- test_name: cells
- Type: cell-based
- condition_details: Mus musculus, A20, Example 2; highest concentration tested 500 μg/ml; * low solubility in the test media (Table 2); read-out: Anticancer potency (IC50) A20
property_measured: IC50 (µg/mL)

a: NCCNC(=O)C(CN)(CCCc1ccccc1)CCCc1ccccc1 [Compound 6]
b: NCCNC(=O)C(CN)(Cc1ccccc1)Cc1ccccc1 [Compound 4]
Would you kindly point out which of a and b has the smaller IC50 figure? Kindly state the label of the option you pick. a
(a: 8.3 µg/mL, b: 68.6 µg/mL)

---

- System: methicillin resistant Staphylococcus epidermidis (ATCC 27626)
- test_name: microbe, parasite or virus in culture
- Assay type: cell-based
- condition_details: ATCC 27626
property_measured: MBC MRSE (µM)
The figure you give is taken to be in µM; do not add the unit.

Reference set (5 entries):
For N=C(N)NCCC[C@H](NC(=O)C(CN)(Cc1ccc2ccccc2c1)Cc1ccc2ccccc2c1)C(N)=O , what is its reported MBC MRSE? 6.6

What do we get for CC(C)(C)c1ccc(CC(CN)(Cc2ccc(C(C)(C)C)cc2)C(=O)N[C@@H](CCCNC(=N)N)C(N)=O)cc1 ? 5.2

What do we get for CC(C)c1ccc(CC(CN)(Cc2ccc(C(C)C)cc2)C(=O)N[C@@H](CCCNC(=N)N)C(N)=O)cc1 ? 6.8

What do we get for CC(C)(C)c1cc(CC(CN)(Cc2cc(C(C)(C)C)cc(C(C)(C)C)c2)C(=O)N[C@@H](CCCNC(=N)N)C(N)=O)cc(C(C)(C)C)c1 ? 3.4

What do we get for Cc1cc(C)cc(CC(CN)(Cc2cc(C)cc(C)c2)C(=O)N[C@@H](CCCNC(=N)N)C(N)=O)c1 ? 21

Please examine the following record next.
For N=C(N)NCCC[C@H](NC(=O)C(CN)(CCc1ccccc1)CCc1ccccc1)C(N)=O , what is its reported MBC MRSE? 74
